Source: paper PMC8292346

assay: Pharmacokinetic analysis of Nec-1f in mice (tissue PK); format: in vivo, C57BL/6 mice; settings: male, C57BL/6, mouse, whole blood, intraperitoneal, 2 mg/ml, blood; sample collection 1440 min; individual mice; read-out: concentration in blood
Readout Name: concentration at 1440 min (ng/mL)
Provide the reading as a plain figure in ng/mL.

Supply recorded concentration at 1440 min for CN1C(=O)C(Cc2c[nH]c3c(Cl)cccc23)NC1=S (stereo not shown) here. 0

* * *

assay: Pharmacokinetic analysis of Nec-1f in mice (tissue PK); type: in vivo, C57BL/6 mice; settings: male, C57BL/6, mouse, liver, intraperitoneal, liver; sample collection 5 min; individual mice; read-out: concentration in liver
Readout Name: concentration at 5 min (ng/mL)
Provide the reading as a plain figure in ng/mL.

Supply recorded concentration at 5 min for CN1C(=O)C(Cc2c[nH]c3c(Cl)cccc23)NC1=S (stereo not shown) [Nec-1f] here. 202

* * *

assay: Pharmacokinetic analysis of Nec-1f in mice (tissue PK); type: in vivo, C57BL/6 mice; conditions: male, C57BL/6, mouse, kidney, intraperitoneal, 2 mg/kg, kidney; sample collection 360 min; individual mice; read-out: concentration in kidney
Readout Name: concentration at 360 min (ng/mL)
Provide the reading as a plain figure in ng/mL.

Supply recorded concentration at 360 min for CN1C(=O)C(Cc2c[nH]c3c(Cl)cccc23)NC1=S (stereo not shown) here. 0

* * *

experiment: Pharmacokinetic analysis of Nec-1f in mice (tissue PK); assay type: in vivo, C57BL/6 mice; conditions: male, C57BL/6, mouse, pancreas, intraperitoneal, pancreas; sample collection 0 min; individual mice; read-out: concentration in pancreas
Readout Name: concentration at 0 min (ng/mL)
Provide the reading as a plain figure in ng/mL.

Supply recorded concentration at 0 min for CN1C(=O)C(Cc2c[nH]c3c(Cl)cccc23)NC1=S (stereo not shown) here. 0

* * *

assay: Pharmacokinetic analysis of Nec-1f in mice (tissue PK); type: in vivo, C57BL/6 mice; details: male, C57BL/6, mouse, kidney, intraperitoneal, 2 mg/ml; sample collection 30 min; individual mice
Readout Name: concentration at 30 min (ng/mL)
Provide the reading as a plain figure in ng/mL.

Supply recorded concentration at 30 min for CN1C(=O)C(Cc2c[nH]c3c(Cl)cccc23)NC1=S (stereo not shown) here. 51

* * *

experiment: Pharmacokinetic analysis of Nec-1f in mice (tissue PK); type: in vivo, C57BL/6 mice; settings: male, C57BL/6, mouse, plasma, intraperitoneal, 2 mg/kg, plasma; sample collection 240 min; individual mice; read-out: concentration in plasma
Readout Name: concentration at 240 min (ng/mL)
Provide the reading as a plain figure in ng/mL.

Supply recorded concentration at 240 min for CN1C(=O)C(Cc2c[nH]c3c(Cl)cccc23)NC1=S (stereo not shown) here. 0

* * *

test: Pharmacokinetic analysis of Nec-1f in mice (tissue PK); format: in vivo, C57BL/6 mice; conditions: male, C57BL/6, mouse, lung, intraperitoneal, lung; sample collection 5 min; individual mice; read-out: concentration in lung
Readout Name: concentration at 5 min (ng/mL)
Provide the reading as a plain figure in ng/mL.

Supply recorded concentration at 5 min for CN1C(=O)C(Cc2c[nH]c3c(Cl)cccc23)NC1=S (stereo not shown) [Nec-1f] here. 573

* * *

test: Pharmacokinetic analysis of Nec-1f in mice (tissue PK); assay type: in vivo, C57BL/6 mice; conditions: male, C57BL/6, mouse, whole blood, intraperitoneal, 2 mg/ml, blood; sample collection 120 min; individual mice; read-out: concentration in blood
Readout Name: concentration at 120 min (ng/mL)
Provide the reading as a plain figure in ng/mL.

Supply recorded concentration at 120 min for CN1C(=O)C(Cc2c[nH]c3c(Cl)cccc23)NC1=S (stereo not shown) [Nec-1f] here. 0
